Tested on: HCV 1b genotype
Experiment: HCV replicon assay (HCV-neo replicon cells, wild-type)
Type: cell-based, Hepatitis C virus
Conditions: Hepatitis C virus, HCV 1b genotype replicon; class symbol; read-out: EC50 Range against HCV 1b
Description: An HCV Replicon assay was utilized in the present disclosure, and was prepared, conducted and validated as described in commonly owned PCT/US2006/022197 and in O'Boyle et al., Antimicrob. Agents Chemother, 49(4):1346-1353 (April 2005). […] The compounds were determined to have differing degrees of reduced inhibitory activity on cells containing mutations vs. the corresponding inhibitory potency against wild-type cells. […]
pEC50: −log10 of the molar value.
ATTRIBUTE_MEASURED: pEC50

Reference set, count: 5
MOLECULE	OBSERVED_RESULT
C[C@H](NC(=O)c1nc(Cl)cc2ccccc12)C(=O)Nc1ccc(-c2cc(-c3ccc(NC(=O)[C@H](C)NC(=O)c4nc(Cl)cc5ccccc45)cc3)[nH]n2)cc1	6.00 to 7.00
CC(=O)N1CCC[C@H]1C(=O)Nc1ccc(-c2cnc(-c3ccc(NC(=O)C4CCN(C(=O)OCc5ccccc5)C4)cc3)o2)cc1 (some centres unmarked)	6.00 to 7.00
C[C@H](NC(=O)Cc1ccccc1)C(=O)Nc1ccc(-c2nnc(-c3ccc(NC(=O)[C@H](C)NC(=O)Cc4ccccc4)cc3)o2)cc1	6.00 to 7.00
COc1cccc2c(C(=O)N3CCC[C@H]3C(=O)Nc3ccc(-c4ccc(-c5ccc(NC(=O)[C@@H]6CCCN6C(=O)[C@@H](O)c6ccccc6)cc5)o4)cc3)nc(Cl)cc12	6.00 to 7.00
CC(=O)N1CCC[C@H]1C(=O)Nc1ccc(-c2nc(-c3ccc(NC(=O)[C@@H]4C=CCN4C(=O)Cc4cccs4)cc3)cs2)cc1	6.00 to 7.00

Okay, here is my list. What is pEC50 for each of these?
1. CC(=O)N[C@@H](C(=O)N1CCCC1C(=O)Nc1ccc(-c2cc(-c3ccc(NC(=O)C4CCCN4C(=O)[C@H](NC(C)=O)c4ccccc4)cc3)[nH]n2)cc1)c1ccccc1 (some centres unmarked)
2. CC(=O)O[C@@H](C(=O)N1CCC[C@H]1C(=O)Nc1ccc(-c2ccc(-c3ccc(NC(=O)[C@@H]4CCCN4C(=O)[C@H](OC(C)=O)c4ccccc4)cc3)o2)cc1)c1ccccc1
3. O=C(C(=O)N1CCC[C@H]1C(=O)Nc1ccc(-c2cnc(-c3ccc(NC(=O)[C@@H]4CCCN4C(=O)C(=O)c4ccccc4)cc3)o2)cc1)c1ccccc1
4. O=C(C(=O)N1CCC[C@H]1C(=O)Nc1ccc(-c2nc[nH]c2-c2ccc(NC(=O)[C@@H]3CCCN3C(=O)C(=O)c3ccccc3)cc2)cc1)c1ccccc1
5. Cn1nc(-c2ccc(NC(=O)[C@@H]3CCCN3C(=O)OCc3ccccc3)cc2)cc1-c1ccc(NC(=O)[C@@H]2CCCN2C(=O)OCc2ccccc2)cc1

1. > 8.34
2. > 8.34
3. 7.00 to 8.34
4. > 8.34
5. 6.00 to 7.00

Okay, here is my list. What is pEC50 for each of these?
1. O=C(C(=O)N1CCC[C@H]1C(=O)Nc1ccc(-c2cc(-c3ccc(NC(=O)[C@@H]4CCCN4C(=O)C(=O)c4ccccc4)cc3)[nH]n2)cc1)c1ccccc1
2. CN(C)[C@@H](C(=O)N1CCCN1C(=O)Nc1ccc(-c2cnc(-c3ccc(NC(=O)N4CCCN4C(=O)[C@@H](c4ccccc4)N(C)C)cc3)o2)cc1)c1ccccc1
3. CC(=O)N1CCC[C@H]1C(=O)Nc1ccc(-c2nc(C)sc2-c2ccc(NC(=O)[C@@H]3CCCN3C(C)=O)cc2)cc1
4. C[C@](O)(C(=O)N1CCC[C@H]1C(=O)Nc1ccc(-c2ccc(-c3ccc(NC(=O)[C@@H]4CCCN4C(=O)[C@](C)(O)c4ccccc4)cc3)o2)cc1)c1ccccc1

1. 7.00 to 8.34
2. 7.00 to 8.34
3. 6.00 to 7.00
4. 7.00 to 8.34
